Protocol Details: Homolysis of the NO–C bond measured by EPR
Details: tert-butylbenzene, half-lifetime t1/2 at 37 °C, t-BuPh
Measured Attribute: half-life (days)

* CC(ON1C(C)(C)CC(O)CC1(C)C)c1cc(-c2ccccn2)nc(-c2ccccn2)c1 (racemic) [(R/S)-8F] | 941

====

Each record here notes measured activation energy Ea.
Protocol Details: Homolysis of the NO–C bond measured by EPR
Details: t-BuPh
Measured Attribute: activation energy Ea (kJ/mol)

- CCOP(=O)(OCC)C(N(OC(C)c1cc(-c2ccccc2)cc(-c2ccccc2)c1)C(C)(C)CO[Si](C)(C)C(C)(C)C)C(C)(C)C (stereo not shown) [(RS/SR)-6G]: 124.7
- CCOP(=O)(OCC)C(N(OC(C)c1cc(-c2ccccn2)nc(-c2ccccn2)c1)C(C)(C)CO)C(C)(C)C (stereo not shown) [(RR/SS)-2F]: 118.9
- CCOP(=O)(OCC)C(N(OC(C)c1cc(-c2ccccn2)nc(-c2ccccn2)c1)C(C)(C)CO)C(C)(C)C (stereo not shown) [(RS/SR)-2F]: 119.7
- CCOP(=O)(OCC)C(N(OC(C)c1cc(-c2ccccc2)cc(-c2ccccc2)c1)C(C)(C)CO)C(C)(C)C (stereo not shown) [(RS/SR)-2G]: 120.8
- CCOP(=O)(OCC)C(N(OC(C)c1cc(-c2ccccn2)nc(-c2ccccn2)c1)C(C)(C)CO[Si](C)(C)C(C)(C)C)C(C)(C)C (stereo not shown) [(RR/SS)-6F]: 123.8
- CCOP(=O)(OCC)C(N(OC(C)c1cc(-c2ccccc2)cc(-c2ccccc2)c1)C(C)(C)CO[Si](C)(C)C(C)(C)C)C(C)(C)C (stereo not shown) [(RR/SS)-6G]: 125.5
- CCOP(=O)(OCC)C(N(OC(C)c1cc(-c2ccccn2)nc(-c2ccccn2)c1)C(C)(C)CO[Si](C)(C)C(C)(C)C)C(C)(C)C (stereo not shown) [(RS/SR)-6F]: 121.7
- CCOP(=O)(OCC)C(N(OC(C)c1cc(-c2ccccc2)cc(-c2ccccc2)c1)C(C)(C)CO)C(C)(C)C (stereo not shown) [(RR/SS)-2G]: 120.8

====

Test system: Vero cells
Protocol Details: Cytotoxicity assay (MTT)
Details: read-out: Cytotoxicity Mean IC50, Vero cell lines; 48 h, MTT; listed as (RS/SR)-1A
pIC50: −log10 of the molar value.
Measured Attribute: pIC50

- CCOP(=O)(OCC)C(N(OC(CN)c1ccccc1)C(C)(C)C)C(C)(C)C (stereo not shown) [(RS/SR)-1A]: 4.68

====

Tested on: Vero cells
Protocol Details: Cytotoxicity assay (MTT)
Details: read-out: Cytotoxicity Mean IC50, Vero cell lines; 48 h, MTT; listed as (RR/SS)-1A
Measured Attribute: IC50

- CCOP(=O)(OCC)C(N(OC(CN)c1ccccc1)C(C)(C)C)C(C)(C)C (stereo not shown) [(RR/SS)-1A]: > 100 µM

====

Each record here notes measured pIC50.
System: P. falciparum F32-TEM (artemisinin-sensitive strain)
Protocol Details: Standard chemosensitivity assay (SYBR Green I), F32-TEM
Assay type: cell-based, Plasmodium falciparum
Details: 48 h; ^1 n = 1, ^2 n = 2; read-out: P. falciparum Strains Mean IC50, F32-TEM
pIC50: −log10 of the molar value.
Measured Attribute: pIC50

- CCOP(=O)(OCC)C(N(OC(C)c1ccc2ccc3cccnc3c2n1)C(C)(C)C)C(C)(C)C (stereo not drawn) [1J]: 5.54
- CC(ON1C(C)(C)CCCC1(C)C)c1ccncc1 (stereo not drawn) [9a]: 5.12
- CCOP(=O)(OCC)C(N(OC(C)c1ccc2ccc3cccnc3c2n1)C(C)(C)CO)C(C)(C)C (stereo not drawn) [2J]: 5.30
